In this section, each of the compounds is paired with its reported The inhibition ratio of the compound on Aurora B(%).
Molecular target: aurora kinase B (Homo sapiens, UniProt Q96GD4)
Construct: purchased Invitrogen PV3174
Sequence (Q96GD4 whole entry): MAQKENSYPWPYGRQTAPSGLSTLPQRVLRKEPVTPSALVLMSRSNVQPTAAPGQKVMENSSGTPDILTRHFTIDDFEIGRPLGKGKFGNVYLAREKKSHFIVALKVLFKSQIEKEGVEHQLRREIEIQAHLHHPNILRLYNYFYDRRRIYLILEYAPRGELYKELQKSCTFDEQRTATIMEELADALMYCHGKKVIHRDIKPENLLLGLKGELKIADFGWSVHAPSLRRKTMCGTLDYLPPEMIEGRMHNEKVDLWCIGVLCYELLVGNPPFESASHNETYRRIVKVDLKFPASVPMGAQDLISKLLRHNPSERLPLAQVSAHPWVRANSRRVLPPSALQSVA
Test: Aurora kinase B inhibition in vitro (Invitrogen aurora kinase screening kit PV3174)
Assay type: biochemical
Conditions: 40 μM
API: value field is a number in %; no unit string.

Query string: Let me know recorded The inhibition ratio of the compound on Aurora B(%) for CS(=O)(=O)CCNCc1ccc(-c2ccc3c(c2)C2=Nc4cc(Cl)ccc4CN2C=N3)o1 , thanks.
Result string: 52.6

Query string: Please report the measured The inhibition ratio of the compound on Aurora B(%) for COc1cc2c(cc1OCCCN1CCOCC1)C1=Nc3cc(COS(C)(=O)=O)cc([N+](=O)[O-])c3CN1C=N2
Result string: 11.2

Query string: Assign The inhibition ratio of the compound on Aurora B(%) to the following record: COc1cc2c(cc1OC)C1=Nc3ccc(F)c(Cl)c3CN1C=N2
Result string: 46.3

Values from patent US20110288086A1
